target: Melanocortin receptor 3 (Mus musculus, UniProt P33033); test: Antagonist activity at mouse melanocortin receptor 3 expressed in HEK293 cells assessed as inhibition of NDP-MSH-induced cAMP accumulation after 2 hrs by AlphaScreen assay; type: functional, cell-based; settings: read-out: pA2 (converted)
Sequence (P33033 whole entry): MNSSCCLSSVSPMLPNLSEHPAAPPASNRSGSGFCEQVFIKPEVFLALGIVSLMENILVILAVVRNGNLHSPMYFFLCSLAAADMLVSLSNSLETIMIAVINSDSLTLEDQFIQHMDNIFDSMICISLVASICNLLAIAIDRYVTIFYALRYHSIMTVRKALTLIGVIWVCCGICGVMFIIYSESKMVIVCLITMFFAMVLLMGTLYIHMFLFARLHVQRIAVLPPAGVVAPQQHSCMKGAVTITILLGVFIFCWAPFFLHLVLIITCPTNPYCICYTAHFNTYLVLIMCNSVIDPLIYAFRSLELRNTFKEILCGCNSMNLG
Non-standard residues stand in square brackets, D forms with d. Residues, ends and D or L forms follow the SMILES beside them.
Hi there, I'd appreciate the recorded Kb for every entry that follows.
Field: numeric (nM). Do not append units.

Name the recorded Kb for `C[C@@H]1NC(=O)[C@H](Cc2c[nH]cn2)NC(=O)[C@H](Cc2ccccc2)NC(=O)[C@H](Cc2ccccc2)NC(=O)[C@H](CCCNC(=N)N)NC(=O)[C@@H]2CCCN2C(=O)[C@H]2CCCN2C(=O)[C@H](Cc2ccccc2)NC1=O` .
347

Name the recorded Kb for N=C(N)NCCC[C@@H]1NC(=O)[C@@H]2CCCN2C(=O)[C@H]2CCCN2C(=O)[C@H](Cc2ccccc2)NC(=O)[C@H](CO)NC(=O)[C@H](CC(N)=O)NC(=O)[C@H](Cc2ccccc2)NC(=O)[C@H](Cc2ccccc2)NC1=O (cyclo(RFFNSF[dP]P)) .
631

Just for reference, ChEMBL document CHEMBL4038350 is where these values come from.
